Test system: Salmonella typhi (RCMB 0100104)
PROTOCOL NOTES: Inhibition zone, agar cup diffusion
Type: cell-based
APPLIED CONDITIONS: Salmonella enterica, 24 h, read-out: inhibition zones (IZ) S. typhi
Measured zone of inhibition at 1000 µg/mL by item
Kindly provide the numeric value in mm only, without the unit symbol.

Field: example entries. Status: answers known.
O=C(c1cc(/N=N/c2ccc(S(=O)(=O)Nc3nccs3)cc2)ccc1O)N1CCCCC1 ... 15
NS(=O)(=O)c1ccc(/N=N/c2ccc(O)c(C(=O)NCc3ccccc3)c2)cc1 ... 16
O=C(c1cc(/N=N/c2ccc(S(=O)(=O)Nc3ncccn3)cc2)ccc1O)N1CCOCC1 ... 14

From here, focus on the item given below.
Need zone of inhibition at 1000 µg/mL of NS(=O)(=O)c1ccc(/N=N/c2ccc(O)c(C(=O)N3CCOCC3)c2)cc1 , thanks.
17
